# assayedSystem: T1, human ROR1 (full-length, on the cell surface) (human, UniProt Q01973 30-937)
# T1 construct: whole, on cells; the tumour cell lines carry their own ROR1; also called Ba/F3-ROR1 cells; Jeko-1
# T1 sequence (Q01973 30-937): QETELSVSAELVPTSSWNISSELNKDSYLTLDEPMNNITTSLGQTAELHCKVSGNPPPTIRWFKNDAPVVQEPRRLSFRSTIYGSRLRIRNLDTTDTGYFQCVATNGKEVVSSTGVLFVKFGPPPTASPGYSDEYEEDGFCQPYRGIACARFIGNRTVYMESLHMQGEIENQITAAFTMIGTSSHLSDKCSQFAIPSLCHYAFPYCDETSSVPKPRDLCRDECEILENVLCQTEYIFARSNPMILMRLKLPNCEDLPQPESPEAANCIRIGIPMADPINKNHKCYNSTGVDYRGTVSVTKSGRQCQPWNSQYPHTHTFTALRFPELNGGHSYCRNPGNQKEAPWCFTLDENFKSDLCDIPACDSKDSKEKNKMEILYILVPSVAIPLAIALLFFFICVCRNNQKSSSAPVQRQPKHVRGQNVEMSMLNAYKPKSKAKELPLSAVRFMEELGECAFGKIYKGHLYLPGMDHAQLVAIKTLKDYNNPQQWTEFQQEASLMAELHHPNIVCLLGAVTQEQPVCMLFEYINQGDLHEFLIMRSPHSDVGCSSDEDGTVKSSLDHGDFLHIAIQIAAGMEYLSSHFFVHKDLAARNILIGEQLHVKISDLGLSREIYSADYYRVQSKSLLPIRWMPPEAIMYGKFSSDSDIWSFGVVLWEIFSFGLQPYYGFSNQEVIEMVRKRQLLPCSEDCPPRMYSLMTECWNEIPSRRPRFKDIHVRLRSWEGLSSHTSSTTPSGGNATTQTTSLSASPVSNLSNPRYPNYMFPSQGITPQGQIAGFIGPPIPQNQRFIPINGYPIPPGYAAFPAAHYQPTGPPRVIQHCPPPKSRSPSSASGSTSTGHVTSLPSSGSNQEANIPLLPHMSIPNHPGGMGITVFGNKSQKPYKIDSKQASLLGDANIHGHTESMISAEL
# assayRemarks: flow cytometry, A549 cells
Please go through the items and note down their pEC50.
One number for each entry, as −log10 of the molar value.

[[record]]
binder = "38F8-Hu16 (antibody, human IgG1, kappa, V domains shown, humanized, human IgG1 / kappa) VH: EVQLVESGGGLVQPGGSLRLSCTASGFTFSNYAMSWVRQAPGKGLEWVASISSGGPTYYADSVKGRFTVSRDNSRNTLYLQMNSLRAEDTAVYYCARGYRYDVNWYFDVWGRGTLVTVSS VL: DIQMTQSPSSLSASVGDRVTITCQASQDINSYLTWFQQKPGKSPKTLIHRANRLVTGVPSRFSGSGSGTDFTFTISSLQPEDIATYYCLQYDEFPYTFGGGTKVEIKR"
experimentalvalue = 9.66

[[record]]
binder = "19F6-Hu35V7 (antibody, human IgG1, kappa, V domains shown, humanized, human IgG1 / kappa) VH: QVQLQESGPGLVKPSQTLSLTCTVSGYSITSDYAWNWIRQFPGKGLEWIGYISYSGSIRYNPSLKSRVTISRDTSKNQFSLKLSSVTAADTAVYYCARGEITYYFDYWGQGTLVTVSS VL: ETTLTQSPAFMSATPGDKVTISCKASTSIDDDMNWYQQKPGKPPKLIISEGNTLRPGIPPRFSSSGYGTDFTFTINNIQSEDAATYYCLQSNDLPLTFGQGTKLEIKR"
experimentalvalue = 10.00


Let's switch to this binder now.
Incoming: Read off the recorded pEC50 for 38F8-Hu54 (antibody, human IgG1, kappa, V domains shown, humanized, human IgG1 / kappa) VH: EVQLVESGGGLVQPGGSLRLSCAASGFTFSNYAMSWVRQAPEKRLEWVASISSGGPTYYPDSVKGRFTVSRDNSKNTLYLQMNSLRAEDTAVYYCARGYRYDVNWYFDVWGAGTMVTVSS VL: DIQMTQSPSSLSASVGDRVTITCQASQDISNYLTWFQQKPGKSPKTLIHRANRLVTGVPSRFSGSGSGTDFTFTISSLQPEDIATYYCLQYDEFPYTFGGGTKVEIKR
Outgoing: 9.34
